# measured-on: T1, PCSK9Δhelix (human, Chemically biotinylated in the phage ELISAs; the site is not given.)
# T1 construct: construct M1-Q692 with engineered TEV site, cleaved by TEV; also called His-PCSK9Δhelix; open groove PCSK9Δhelix
# assay-summary: phage spot ELISA
Below: a set of entries, each annotated with reported s/n.
# respond with the number and nothing more

Known results for binders:
Q: Give reported s/n value for SGLAPTVSDS [SEQ ID NO 375]
A: 4.33

Q: Respond only with s/n recorded for SGGSIPWNLERITPPR [SEQ ID NO 382]
A: 9.01

Q: Report s/n for SGHASKGMVLSG [SEQ ID NO 381]
A: 7.52

Q: Specify s/n for SGMVYVDRGVRVFT [SEQ ID NO 368] and stop.
A: 10.2

---
Q: Note s/n for the binder shown: SGTPEMPAML [SEQ ID NO 374]
A: 8.06

Q: Report measured s/n; entry is SGSYRGAWSVFGGSTD [SEQ ID NO 372]
A: 7.68

Q: In one line, give reported s/n of the entry SGRNGSGYINRGIEIW [SEQ ID NO 380] .
A: 5.5

Q: Tell me measured s/n for SGEHQFYSYRGVDVYR [SEQ ID NO 370] please.
A: 3.71

Cited source for all entries: patent US20200283478A1
